Target: TGF-beta receptor type-1 (Homo sapiens, UniProt P36897)
Sequence (P36897 whole entry): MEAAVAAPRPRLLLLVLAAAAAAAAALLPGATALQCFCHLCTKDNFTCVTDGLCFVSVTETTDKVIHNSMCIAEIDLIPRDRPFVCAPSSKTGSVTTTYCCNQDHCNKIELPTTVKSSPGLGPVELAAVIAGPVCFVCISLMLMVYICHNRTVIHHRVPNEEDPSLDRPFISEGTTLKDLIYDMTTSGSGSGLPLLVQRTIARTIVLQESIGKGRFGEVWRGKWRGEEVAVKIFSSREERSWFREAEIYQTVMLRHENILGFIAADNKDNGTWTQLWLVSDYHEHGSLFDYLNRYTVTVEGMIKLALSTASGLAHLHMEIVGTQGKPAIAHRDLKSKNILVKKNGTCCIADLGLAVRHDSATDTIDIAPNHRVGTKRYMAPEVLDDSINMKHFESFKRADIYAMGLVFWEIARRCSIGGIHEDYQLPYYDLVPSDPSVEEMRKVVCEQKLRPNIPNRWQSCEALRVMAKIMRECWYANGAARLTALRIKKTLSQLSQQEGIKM
Assay: Inhibition of human recombinant GST-fused ALK5 expressed in Sf9 cells
Measured IC50, listed per entry.
Please respond with the number in µM and leave the unit unwritten.

// solved cases for IC50 follow
Cc1cccc(-c2nn(CC(=S)Nc3cccc(C#N)c3)cc2-c2ccc3ncccc3c2)n1 ... 0.051
Cc1cccc(-c2[nH]c(Cc3cccc(C(N)=O)c3)nc2-c2ccc3nccnc3c2)n1 ... 0.017
Cc1cccc(-c2nn(CC(=O)Nc3ccccc3)cc2-c2ccc3ncccc3c2)n1 ... 0.207
Cc1cccc(-c2nn(CC(=O)Nc3cccc(C(N)=O)c3)cc2-c2ccc3ncccc3c2)n1 ... 0.075

// moving on: another record for IC50
Enquiry: Please look up its IC50: `Cc1cccc(-c2nn(CC(=O)Nc3cccc(C#N)c3)cc2-c2ccc3ncccc3c2)n1`
Return: 0.022

Origin of measurements: ChEMBL document CHEMBL1765000
